biological target: KRAS G12S (Homo sapiens (Human), UniProt P01116+P62937, G12S); assay: Ras-Raf (BRAF RBD) disruption / FRET / MOA assay, KRAS G12S; format: biochemical; conditions: Ras-Raf disruption/FRET/MOA assay; class symbols; read-out: KRAS G12S FRET data IC50
Sequence (P01116-2 other isoform, or with tags, fused parts or gaps G12S): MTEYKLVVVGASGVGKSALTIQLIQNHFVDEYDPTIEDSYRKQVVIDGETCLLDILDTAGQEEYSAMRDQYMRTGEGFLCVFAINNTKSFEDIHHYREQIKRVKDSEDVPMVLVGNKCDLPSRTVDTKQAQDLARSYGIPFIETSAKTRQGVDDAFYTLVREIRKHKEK
Sequence (P62937 whole entry): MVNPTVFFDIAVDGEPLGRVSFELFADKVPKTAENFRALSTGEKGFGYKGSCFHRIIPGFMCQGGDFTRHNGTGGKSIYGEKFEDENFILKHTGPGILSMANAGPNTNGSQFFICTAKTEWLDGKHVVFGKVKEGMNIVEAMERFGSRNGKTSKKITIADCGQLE
value.kind: IC50

Guide cases for IC50, answers given:
molecule	IC50
C=CC(=O)N1CCC2(CC1)CN(C(=O)N(C)[C@H](C(=O)N[C@H]1Cc3nc(cs3)-c3ccc4c(c3)c(c(-c3cccnc3[C@H](C)OC)n4CC)CC(C)(C)COC(=O)[C@@H]3CCCN(N3)C1=O)C(C)C)C2 (atropisomer, axis not shown) [Example A702]	100 to 1000 nM
CCn1c(-c2cccnc2[C@H](C)OC)c2c3cc(ccc31)N1CCO[C@@H](C[C@H](NC(=O)[C@H](C(C)C)N(C)C(=O)[C@@]3(F)CCC(C(=O)C#CC(C)(C)N4CCC4)C3)C(=O)N3CCC[C@H](N3)C(=O)OCC(C)(C)C2)C1 (stereo partly shown) [Example A726]	1000 to 10000 nM
C=CC(=O)N1CCO[C@H]2CN(C(=O)N(C)[C@H](C(=O)N[C@H]3C[C@H]4CN(CCO4)c4ccc5c(c4)c(c(-c4cccnc4[C@H](C)OC)n5CC)CC(C)(C)COC(=O)[C@@H]4CCCN(N4)C3=O)C(C)C)C[C@H]21 [Example A562]	1000 to 10000 nM
C=CC(=O)N1CC[C@@H](C(=O)N(C)[C@H](C(=O)N[C@H]2Cc3cc(O)cc(c3)-c3ccc4c(c3)c(c(-c3cncnc3)n4CC)CC(C)(C)COC(=O)[C@@H]3CCCN(N3)C2=O)C(C)C)O1 [Example A179]	1000 to 10000 nM

// batch mode: one IC50 value per listed entry
1. C=CC(=O)N1CCC(F)(C(=O)N(C)[C@H](C(=O)N[C@H]2Cc3cccc(c3)-c3ccc4c(c3)c(c(-c3cccnc3[C@H](C)OC)n4CC)CC(C)(C)COC(=O)[C@@H]3CCCN(N3)C2=O)C(C)C)CC1 (atropisomer, axis not shown) [Example A519]
2. C=CC(=O)N1CC[C@H](C(=O)N(C)[C@H](C(=O)N[C@H]2Cc3coc(n3)-c3ccc4c(c3)c(c(-c3cccnc3[C@H](C)OC)n4CC)CC(C)(C)COC(=O)[C@@H]3CCCN(N3)C2=O)C(C)C)C1 (atropisomer, axis not shown) [Example A468]
3. C=CC(=O)N1C[C@@H](C)N(C(=O)N(C)[C@H](C(=O)N[C@H]2Cc3nc(cs3)-c3ccc4c(c3)c(c(-c3cccnc3[C@H](C)OC)n4CC)CC(C)(C)COC(=O)[C@@H]3CCCN(N3)C2=O)C(C)C)C[C@H]1C (atropisomer, axis not shown) [Example A406]
4. CCn1c(-c2cccnc2)c2c3cc(ccc31)-c1csc(c1)C[C@H](NC(=O)[C@H](C(C)C)N(C)C(=O)[C@H]1CCN(C(=O)C#CCN3CCOCC3)C1)C(=O)N1CCC[C@H](N1)C(=O)OCC(C)(C)C2 [Example A205]
5. C=CC(=O)N1CC[C@H](C(=O)N(C)[C@H](C(=O)N[C@H]2Cc3cc(cc(C(F)F)c3)-c3ccc4c(c3)c(c(-c3cccnc3[C@H](C)OC)n4CC(F)(F)F)CC(C)(C)COC(=O)[C@@H]3CCCN(N3)C2=O)C(C)C)C1 (atropisomer, axis not shown) [Example A372]
6. C=CC(=O)N1CC[C@H](C(=O)N(C)[C@H](C(=O)N[C@H]2Cc3cc(O)cc(c3)-c3ccc4c(c3)c(c(-c3csc(N(C)C)n3)n4CC)CC(C)(C)COC(=O)[C@@H]3CCCN(N3)C2=O)C(C)C)C1 [Example A303]

Out:
100 to 1000 nM
1000 to 10000 nM
100 to 1000 nM
> 10000 nM
1000 to 10000 nM
> 10000 nM
